Entries and their growth inhibition
procedure text: NCI Yeast Anticancer Drug Screen. Data for the sgs1 mgt1 strain (AID 161);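 further: 0% = growth of cultures given vehicle only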
details: S. cerevisiae sgs1 mgt1 strain, at 50.0 µM, stronger effect = higher value
Compounds without any hit were thinned out: in the full panel of roughly 79,000, 15% have a hit.

{"compound": "C[C@@H]1CC[C@@]2(NC1)O[C@H]1C[C@H]3[C@@H]4CC[C@H]5C[C@@H](O)CC[C@]5(C)[C@H]4CC[C@]3(C)[C@H]1[C@@H]2C", "result unit": "%", "growth inhibition": 93.9}
{"compound": "O=C(CCl)OCC(Cl)Cl", "result unit": "%", "growth inhibition": 10.4}
{"compound": "CCC(C)N1CN(c2ccccc2)C2(CCN(CCCC3(c4ccc(F)cc4)OCCO3)CC2)C1=O (stereo not drawn)", "result unit": "%", "growth inhibition": 34}
{"compound": "COC1(OC)C(Cl)=C(Cl)C(Cl)=C1Cl", "result unit": "%", "growth inhibition": 75.2}
{"compound": "C=CCN1C(=O)NC(=O)/C(=C/c2c3ccccc3cc3ccccc23)C1=O", "result unit": "%", "growth inhibition": 82.2}
{"compound": "CCC[CH2][Sn]([N]=C=S)([N]=C=S)[N]=C=S.O=P(c1ccccc1)(c1ccccc1)c1ccccc1.O=P(c1ccccc1)(c1ccccc1)c1ccccc1", "result unit": "%", "growth inhibition": 83.2}
{"compound": "O=P(Nc1ccccc1)(Oc1ccccc1)N1CCN(c2ccccc2)CC1 (stereo not drawn)", "result unit": "%", "growth inhibition": 84.5}
{"compound": "CNC(=O)N1CN(c2ccccc2)C2(CCN(CCCC(=O)c3ccc(F)cc3)CC2)C1=O", "result unit": "%", "growth inhibition": 68.3}
{"compound": "O=[N+]([O-])c1cc2c([N+](=O)[O-])cccc2o1", "result unit": "%", "growth inhibition": 99.2}
{"compound": "CC12CCC(O)CC1=CCC1C2CCC2(C)C(NC(=O)C3CCCN3C(=O)CN(CCCl)CCCl)CCC12 (stereo not drawn)", "result unit": "%", "growth inhibition": 91.5}
{"compound": "Cc1ccccc1NC(=O)CBr", "result unit": "%", "growth inhibition": 99.3}
{"compound": "O=c1oc2ccccc2c(O)c1C(c1ccc(OCc2ccccc2)cc1)c1c(O)c2ccccc2oc1=O", "result unit": "%", "growth inhibition": 65.3}
{"compound": "C/C(=N\\N=C(N)N)C(CN1CCOCC1)C(c1ccccc1)c1c(O)c2ccccc2oc1=O (stereo not drawn)", "result unit": "%", "growth inhibition": 86}
{"compound": "COc1cc2ccccc2c2cc([N+](=O)[O-])oc12", "result unit": "%", "growth inhibition": 60.9}
{"compound": "Cc1c(N)nc([C@H](CC(N)=O)NC[C@H](N)C(N)=O)nc1C(=O)N[C@H](C(=O)N[C@H](C)[C@@H](O)[C@H](C)C(=O)N[C@H](C(=O)NCCc1nc(-c2nc(C(=O)NCCC[S+](C)C)cs2)cs1)[C@@H](C)O)C(OC1OC(CO)C(O)C(O)C1OC1OC(CO)C(O)C(OC(N)=O)C1O)c1cnc[nH]1 (stereo partly drawn)", "result unit": "%", "growth inhibition": 93.3}
{"compound": "CCC[CH2][Sn]1([CH2]CCC)[O]C(=O)c2cccnc2[O]1", "result unit": "%", "growth inhibition": 85.3}
{"compound": "COc1c(Br)cc(/C=C(/C)[N+](=O)[O-])cc1Br", "result unit": "%", "growth inhibition": 31.8}
{"compound": "ClCCN(CCCl)B(N(CCCl)CCCl)N(CCCl)CCCl", "result unit": "%", "growth inhibition": 99.1}
{"compound": "ClCCN(CCCl)c1ccc(CN2CCCN(Cc3ccc(N(CCCl)CCCl)cc3Cl)C2c2ccncc2)c(Cl)c1", "result unit": "%", "growth inhibition": 93.9}
{"compound": "OC(c1ccc(Br)cc1)C(Cl)(Cl)Cl (stereo not drawn)", "result unit": "%", "growth inhibition": 84.5}
{"compound": "COC(=O)c1c(C)ccc2c(O)c3c(cc12)C(=O)c1c2c(cc(O)c1C3=O)C1(C)OC(C)(O2)C(O)C(N(C)C)C1O (stereo not drawn)", "result unit": "%", "growth inhibition": 97.8}
{"compound": "S=P(Nc1ccccc1)(Nc1ccccc1)Oc1ccccc1", "result unit": "%", "growth inhibition": 99.2}
{"compound": "Nc1ccccc1C(=O)OCCc1ccccc1", "result unit": "%", "growth inhibition": 68}
{"compound": "CC[C@](C)(O)C(=O)O[C@H]1C(=O)O[C@@H]2C[C@H]3C(C)=CC(=O)[C@@H](O)[C@]3(C)[C@H]3[C@@]4(O)OC[C@]32[C@@H]1[C@@H](C)[C@H]4O", "result unit": "%", "growth inhibition": 61.8}
{"compound": "O=S(=O)(F)c1ccc(Cl)cc1C[P+](c1ccccc1)(c1ccccc1)c1ccccc1", "result unit": "%", "growth inhibition": 53.5}
{"compound": "c1ccc2c(c1)[As]=c1ccccc1=[As]2 (stereo not drawn)", "result unit": "%", "growth inhibition": 92}
{"compound": "O=C(c1ccccc1)c1c(CC(O)c2ccncc2)n(C(=O)c2ccccc2)c2ccccc12 (stereo not drawn)", "result unit": "%", "growth inhibition": 92.2}
{"compound": "CCc1cccc(C(C)C)c1NC1=C([n+]2ccc(C)cc2)C(=O)c2ccccc2C1=O", "result unit": "%", "growth inhibition": 41.2}
{"compound": "Cc1nc(Cl)c(CBr)c(Cl)n1", "result unit": "%", "growth inhibition": 32.6}
{"compound": "CC1=[N+](Cc2cc(C)cc(C)c2O)CCCC1", "result unit": "%", "growth inhibition": 41.2}
{"compound": "NN1CCCC1C(=O)O (stereo not drawn)", "result unit": "%", "growth inhibition": 28.2}
{"compound": "O=C(c1ccc(Br)cc1)C1C(c2ccccc2)N1C1CCCCC1 (stereo not drawn)", "result unit": "%", "growth inhibition": 96.5}
{"compound": "COc1cccc2c1C(=O)c1c(O)c3c(c(O)c1C2=O)C[C@@](O)(/C(C)=N\\O)C[C@@H]3OC1CC(N)C(O)C(C)O1 (stereo partly drawn)", "result unit": "%", "growth inhibition": -9.9}
{"compound": "CCCCN(CC)CC(C(C)=O)c1c(O)c2ccccc2oc1=O (stereo not drawn)", "result unit": "%", "growth inhibition": 60.5}
{"compound": "O=C(CCl)Nc1cccc(Cl)c1", "result unit": "%", "growth inhibition": 87.5}
{"compound": "CC(=O)[O-].O=C([CH-]C(=O)c1ccccc1)c1ccccc1.O=C([CH-]C(=O)c1ccccc1)c1ccccc1.[Sm+3]", "result unit": "%", "growth inhibition": 92.8}
{"compound": "COC1CC(CC2CCC(C)C(C(C)C(=O)O)O2)OC2(OC(C)(C3CCC(C)(C4OC(C5OC(O)(CO)C(C)CC5C)CC4C)O3)CC2C)C1C (stereo not drawn)", "result unit": "%", "growth inhibition": 89}
{"compound": "Nc1ccc(Cl)cc1C(=O)c1ccccc1", "result unit": "%", "growth inhibition": 90.7}
